- tested-system: D(2) dopamine receptor (Homo sapiens)
- Sequence (P14416 whole entry): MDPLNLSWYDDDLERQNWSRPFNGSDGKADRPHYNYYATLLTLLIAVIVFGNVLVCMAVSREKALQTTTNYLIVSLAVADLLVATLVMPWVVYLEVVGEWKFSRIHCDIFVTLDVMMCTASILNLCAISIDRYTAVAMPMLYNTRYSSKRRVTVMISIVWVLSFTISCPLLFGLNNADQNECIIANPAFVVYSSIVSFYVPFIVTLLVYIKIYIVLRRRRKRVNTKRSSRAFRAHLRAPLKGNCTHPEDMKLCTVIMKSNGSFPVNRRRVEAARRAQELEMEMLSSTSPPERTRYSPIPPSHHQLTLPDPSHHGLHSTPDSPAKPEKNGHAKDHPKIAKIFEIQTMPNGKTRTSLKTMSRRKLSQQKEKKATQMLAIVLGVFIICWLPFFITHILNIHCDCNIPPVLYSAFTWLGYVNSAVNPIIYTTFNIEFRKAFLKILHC
- protocol: Binding affinity to human dopamine D2 receptor
pKi: −log10 of the molar value.
Would you mind labelling by pKi? At or over 7 is Y, under is N.

                                   compound  category_label
0  CC(C)Oc1ccccc1N1CCN([C@H]2CC[C@@H](NS(=O)(=O)c3cccc(Cl)c3F)CC2)CC1               N
1  COc1ccc(Br)cc1S(=O)(=O)N[C@H]1CC[C@@H](N2CCN(c3ccccc3OC(C)C)CC2)CC1               Y
2  CC(C)Oc1ccccc1N1CCN([C@H]2CC[C@H](NS(=O)(=O)c3ccccc3C#N)CC2)CC1               Y
3  COc1ccc(Cl)cc1S(=O)(=O)N[C@H]1CC[C@@H](N2CCN(c3ccccc3OC(C)C)CC2)CC1 (stereo in doubt; form 2)               N
4  CC(C)Oc1ccccc1N1CCN([C@H]2CC[C@H](NS(=O)(=O)c3cccc(C(F)(F)F)c3)CC2)CC1               Y
